- Species: Mus musculus
- protocol: animal or person
- condition-parameters: ICR, ip
- Description: Anticonvulsant activity in ip dosed ICR mouse assessed as protection against 50 mA current-induced seizure pretreated for 30 mins followed by seizure induction measured for 60 mins by maximal electroshock seizure test
measured-metric: ED50
Answer by giving the amount and then stating its unit.

Worked cases, ED50 given:
CCOC(=O)CSc1nnc(Cn2[nH]c(=O)c3ccccc3c2=O)o1	193 µmol/kg
CCCC(CCC)C(=O)O	1710 µmol/kg
O=C(O)CSc1nnc(Cn2[nH]c(=O)c3ccccc3c2=O)o1	184 µmol/kg

# evaluate next
q: Find the recorded ED50 belonging to `COC(=O)CSc1nnc(Cn2[nH]c(=O)c3ccccc3c2=O)o1` and report it.
a: 172 µmol/kg

----------
- assay-target: Poly [ADP-ribose] polymerase 1 (Homo sapiens)
- Sequence (P09874 whole entry): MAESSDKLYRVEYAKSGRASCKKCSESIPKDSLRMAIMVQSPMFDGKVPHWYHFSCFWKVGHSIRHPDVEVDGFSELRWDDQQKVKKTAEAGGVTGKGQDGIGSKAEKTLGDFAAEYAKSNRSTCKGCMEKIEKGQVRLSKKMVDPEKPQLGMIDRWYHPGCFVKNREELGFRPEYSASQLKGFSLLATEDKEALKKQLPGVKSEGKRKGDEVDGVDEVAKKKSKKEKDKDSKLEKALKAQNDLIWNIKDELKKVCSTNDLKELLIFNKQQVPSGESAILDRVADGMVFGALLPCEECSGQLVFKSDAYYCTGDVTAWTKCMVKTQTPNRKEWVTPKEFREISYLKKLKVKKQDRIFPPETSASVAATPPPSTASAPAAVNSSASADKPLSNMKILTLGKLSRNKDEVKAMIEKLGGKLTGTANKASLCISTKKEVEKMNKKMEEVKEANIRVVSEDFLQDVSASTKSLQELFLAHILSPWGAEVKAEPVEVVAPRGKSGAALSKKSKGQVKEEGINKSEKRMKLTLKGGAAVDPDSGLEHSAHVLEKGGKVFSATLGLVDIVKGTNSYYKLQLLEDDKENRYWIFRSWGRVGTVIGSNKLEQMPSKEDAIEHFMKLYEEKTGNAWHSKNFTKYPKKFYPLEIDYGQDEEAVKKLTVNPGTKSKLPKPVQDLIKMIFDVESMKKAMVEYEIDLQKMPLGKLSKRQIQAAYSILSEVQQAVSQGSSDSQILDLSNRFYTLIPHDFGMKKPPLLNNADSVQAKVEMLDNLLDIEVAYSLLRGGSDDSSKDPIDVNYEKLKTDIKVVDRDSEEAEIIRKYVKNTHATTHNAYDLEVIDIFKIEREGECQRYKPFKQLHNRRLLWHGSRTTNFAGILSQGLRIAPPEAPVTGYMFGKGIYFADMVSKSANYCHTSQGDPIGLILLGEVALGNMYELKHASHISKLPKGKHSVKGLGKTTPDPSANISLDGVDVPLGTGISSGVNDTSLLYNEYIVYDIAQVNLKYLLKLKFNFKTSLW
- protocol: Inhibition of human PARP1 expressed in Escherichia coli using histone as substrate by ELISA
measured-metric: IC50 (nM)
The reply should contain only the number, in nM.

q: Fill in the recorded IC50 for this molecule, with Poly [ADP-ribose] polymerase 1 (Homo sapiens) as test system: CCN1CCCC2CN(C(=O)c3cc(Cc4n[nH]c(=O)c5ccccc45)ccc3F)CC21 (stereo unspecified)
a: 2
